- Experimental Target: Protein-tyrosine kinase 2-beta (Homo sapiens) (UniProt Q14289)
- Sequence (Q14289 whole entry, looked up): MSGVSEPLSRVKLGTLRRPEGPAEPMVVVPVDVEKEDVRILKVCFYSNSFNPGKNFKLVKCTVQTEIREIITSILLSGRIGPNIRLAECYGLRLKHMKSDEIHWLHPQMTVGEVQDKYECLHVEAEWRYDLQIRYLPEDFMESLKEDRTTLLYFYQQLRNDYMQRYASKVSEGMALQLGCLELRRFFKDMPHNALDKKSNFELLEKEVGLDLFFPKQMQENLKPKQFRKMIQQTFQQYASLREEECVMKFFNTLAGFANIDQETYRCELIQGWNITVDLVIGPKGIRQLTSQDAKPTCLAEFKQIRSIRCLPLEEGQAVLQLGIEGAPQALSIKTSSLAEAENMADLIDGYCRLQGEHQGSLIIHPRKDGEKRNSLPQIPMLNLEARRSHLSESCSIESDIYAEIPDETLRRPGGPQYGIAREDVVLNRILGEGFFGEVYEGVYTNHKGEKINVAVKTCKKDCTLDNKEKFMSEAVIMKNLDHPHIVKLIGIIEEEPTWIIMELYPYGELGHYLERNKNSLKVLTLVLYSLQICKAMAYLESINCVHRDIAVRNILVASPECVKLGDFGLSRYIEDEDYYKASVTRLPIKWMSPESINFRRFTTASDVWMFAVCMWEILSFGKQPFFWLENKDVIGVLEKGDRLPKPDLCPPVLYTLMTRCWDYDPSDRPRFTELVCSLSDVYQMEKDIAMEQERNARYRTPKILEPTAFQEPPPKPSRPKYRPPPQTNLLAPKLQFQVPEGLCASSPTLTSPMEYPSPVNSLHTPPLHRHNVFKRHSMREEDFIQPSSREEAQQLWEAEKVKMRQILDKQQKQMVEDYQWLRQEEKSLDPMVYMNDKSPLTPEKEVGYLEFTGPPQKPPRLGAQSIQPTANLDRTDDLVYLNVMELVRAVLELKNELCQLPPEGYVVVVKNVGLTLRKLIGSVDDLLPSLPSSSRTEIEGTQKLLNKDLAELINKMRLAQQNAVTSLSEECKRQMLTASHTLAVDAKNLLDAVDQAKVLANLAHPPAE
- Test Settings: at 10 µM

{"Smiles Notation": "Cc1nc(-c2ccccc2)c(-c2ccncc2)o1", "residual activity": "79%"}
{"Smiles Notation": "COc1ccc(CNc2nc(N(CCO)CCO)nc3c2ncn3C(C)C)cc1", "residual activity": "85%"}
{"Smiles Notation": "COc1cc2ncc(-c3ccccc3)nc2cc1OC", "residual activity": "76%"}
{"Smiles Notation": "N#C/C(=C(\\N)Sc1ccc(N)cc1)c1ccccc1C(F)(F)F", "residual activity": "97%"}
{"Smiles Notation": "COc1ccc(C(=O)Nc2sc3c(c2C(N)=O)CCCC3)cc1OC", "residual activity": "89%"}
{"Smiles Notation": "Cc1nc2cc3nc(-c4cccs4)cnc3cc2n1C", "residual activity": "87%"}
{"Smiles Notation": "O=C1NC(=O)c2cc(Nc3ccc(F)cc3)c(Nc3ccc(F)cc3)cc21", "residual activity": "81%"}

// provenance: ChEMBL document CHEMBL2218924
